assay name: protein stability index of a GFP-peptide fusion (GPS, HEK-293T) (PSI 1-6); higher = more stable;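 note: 24-mer peptide tiles fused after GFP, lentivirally expressed, FACS-sorted into six equal bins by GFP/DsRed ratio, decoded by Illumina sequencing, PSI is the read-weighted mean bin number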
conditions: treatment: MLN4924 1 uM, 8 h; c terminus: a fixed tail appended

residue sequence: GEEQLKTHKKCKEEVVSTLDAVQV [FCHO1]
protein stability index: 4.12
//
residue sequence: DDILYHVKGMQRIVNQWSEKFSDE [DLC1]
protein stability index: 3.75
//
residue sequence: GDFAWERVRGLGLPKLYLPTGPRR [CDKN1A]
protein stability index: 3.32
//
residue sequence: SSDSANTTIEDEDAKARKQEIIKT [CAMK2B]
protein stability index: 5.42
//
residue sequence: TNYNNVCRKFPRDMKAMSPENQEY [RHOBTB2]
protein stability index: 4.13
//
residue sequence: HTKPSQAPAVEVAPAGASYNPSFE [NOP53]
protein stability index: 4.95
//
residue sequence: RERDSVPKPSVLFLHPDLGVGGAE [ALG2]
protein stability index: 4.21
//
residue sequence: LMSDLRRKRTAHERAKELYSSGEF [INTS4]
protein stability index: 3.65
//
residue sequence: EAPQWLESDSCQKCEQPFFWNIKQ [WDFY1]
protein stability index: 3.48
//
residue sequence: CLLQPPSCPNGMSAENGLEKSGFS [DLC1]
protein stability index: 3.44
//
residue sequence: EKRNAGNAVRSAMKSEEQKIKDAR [KMT5A]
protein stability index: 5.09
//
residue sequence: DLLNVCMRHVEKMCKADLSRNFIE [TRIM29]
protein stability index: 2.87
//
residue sequence: SAFPFSDKLGELSDKIGSTIDDTI [CLINT1]
protein stability index: 3.81
//
residue sequence: QALQAGPEGARRGLGVLRALGSRG [FANCE]
protein stability index: 4.31
//
residue sequence: LGNFFTTLRVVHHKFHSQRHGSKK [TMEM120A]
protein stability index: 2.54
//
residue sequence: IERQWGNLLGEGQHKCDECGKSFT [ZSCAN9]
protein stability index: 3.55
//
residue sequence: RLKLLKDREVDAATSATSHTRSLN [FBF1]
protein stability index: 4.41
//
residue sequence: PTHQAHTVGFLDEAIQPYRDRLRS [TRIM15]
protein stability index: 4.44
//
residue sequence: CPIDQHHRNQCQYCRLKKCLKVGM [NR2F2]
protein stability index: 3.36
//
residue sequence: FLSSEKQICGTHRQTKKMFCDMDK [TRIM43]
protein stability index: 3.4
//
residue sequence: IAQAEEQARKRQEEREKEAAEQAE [SMARCE1]
protein stability index: 5.89
//
residue sequence: SLSNGQGSRVLHVVQTLYPFSSVT [NCK2]
protein stability index: 2.14
//
residue sequence: CAVLLSAVQAQAGWLQHDFGHLSV [FADS1]
protein stability index: 3.3
//
residue sequence: KINVNEIFYDLVRQINRKTPVPGK [RAP1B]
protein stability index: 2.25
//
residue sequence: SQYFRSLFSSHPPLGGGVGGQDGL [KLHL14]
protein stability index: 2.87
//
residue sequence: GWILIDRCGKHFGTILNYLRDGAV [KCTD10]
protein stability index: 2.38
//
residue sequence: YVKPQSCIDIVIRHVAPIPSHYDV [MOSPD3]
protein stability index: 2.74
//
residue sequence: CSISKMEEEAGQTSIEPSKSSIIP [ZER1]
protein stability index: 4.53
//
residue sequence: PDNCEMFLNFNGMKLFLDCLKEFP [ZER1]
protein stability index: 2.19
//
residue sequence: VELHYEEGSPRNLGTPTSSTPRPS [C2CD2L]
protein stability index: 4.48
//
residue sequence: SEIKNYNFQQPGFTSGTGHFTAMV [GLIPR2]
protein stability index: 2.77
//
residue sequence: LRGGRGGSGGTRGPPSRGGHMDDG [RBMX]
protein stability index: 5.3
//
residue sequence: LDLILAILALELICSLICLLIYTV [TMEM192]
protein stability index: 3
//
residue sequence: TQTSEECNGILTEKMEEEEQTCDP [ZNF396]
protein stability index: 5.71
//
residue sequence: FSKVKTSLGLDHCHSFISGTAPLN [ACSBG2]
protein stability index: 2.44

====

Listing of entries alongside the reported protein stability index.
assay name: protein stability index of a GFP-peptide fusion (GPS, HEK-293T) (PSI 1-6); higher = more stable
conditions: treatment: DMSO; c terminus: a fixed tail appended

residue sequence: SLHHTSECTQMDHLGCMHYTVRAP [ALDH8A1]
protein stability index: 3.04
//
residue sequence: QAGSSQGLSLCQFQNFSLHDPLYG [LPCAT4]
protein stability index: 3
//
residue sequence: ELRDSSAYHVPNRTLASGRLLSYR [DNAAF3]
protein stability index: 3.04
//
residue sequence: TNDSLSLKPSWFDFGFAILGFAYA [MIA2]
protein stability index: 2.99

====

assay name: protein stability index of a GFP-peptide fusion (GPS, HEK-293T) (PSI 1-6); higher = more stable
conditions: treatment: DMSO; c terminus: a fixed tail appended

residue sequence: TGGQTVVNPWIIIGGVATVVCQPN [SEPHS2]
protein stability index: 2.84
--
residue sequence: YVKPQSCIDIVIRHVAPIPSHYDV [MOSPD3]
protein stability index: 2.97
--
residue sequence: HQRIHTGEKPYECVQCGKSYSQSS [ZNF24]
protein stability index: 3.79
--
residue sequence: MCTKMEQPFYHDDSYTATGYGRAP [JUNB]
protein stability index: 3.19
--
residue sequence: YDVAMNRAKDLVELDPEVEGTKPS [GOLPH3L]
protein stability index: 5.54
--
residue sequence: HCMLVSNRVSWWGSTLAMLQRLKE [ZBED1]
protein stability index: 3.29
--
residue sequence: PAPSRMQMPQGNPLLLSHTLQELL [SNX8]
protein stability index: 3.08
--
residue sequence: FWEEHKASLGREESRAPSPLLHKD [CBY2]
protein stability index: 4.61
--
residue sequence: PQSSKSTVVKSLIDNSSEIEDEDQ [FAN1]
protein stability index: 5.65
--
residue sequence: HMEGLIVRERILGADNIDVSHPII [FEM1B]
protein stability index: 3.25
--
residue sequence: EQLFFVRLVGKTPIETLIRDMLLS [NR2F2]
protein stability index: 2.56
--
residue sequence: LKNNETLVQHGVKPQEIVQVEIFS [IQUB]
protein stability index: 2.82
--
residue sequence: PHRMDRRLLALIYLAHASDVLENA [GOLPH3]
protein stability index: 2.55
--
residue sequence: SGKRLSGVSSVDSAFSSRGSLSLS [RIPK4]
protein stability index: 3.47
--
residue sequence: NYDKLSRSIRQYYKKGIIRKPDIS [SPDEF]
protein stability index: 2.55
--
residue sequence: EGNQKGEQATSLAILRVIRLVRVF [KCNA1]
protein stability index: 2.2
--
residue sequence: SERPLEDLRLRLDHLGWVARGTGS [RTN2]
protein stability index: 2.63
--
residue sequence: DVTCFLLPHPGLQVATSPDFDGKL [ATL3]
protein stability index: 2.58
--
residue sequence: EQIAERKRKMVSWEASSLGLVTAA [KMT2E]
protein stability index: 2.65
--
residue sequence: STSRAHKLPSRRQPGLLHLQSCGD [FAM189A2]
protein stability index: 3.67
--
residue sequence: AALTEALQRQAEQNPTASYYNVVL [FCHO1]
protein stability index: 2.3
--
residue sequence: PHLRSFCETCVGSWSIQMRQHHHQ
protein stability index: 2.4
--
residue sequence: TFILKNPPENSDSGTGKKEKEKKN [EIF5]
protein stability index: 4.94

====

assay name: protein stability index of a GFP-peptide fusion (GPS, HEK-293T) (PSI 1-6); higher = more stable
conditions: treatment: DMSO; c terminus: a fixed tail appended

residue sequence: CLLQPPSCPNGMSAENGLEKSGFS [DLC1]
protein stability index: 3.99
--
residue sequence: NNKYSYTSNSDDNMLKNIELFDKL [KCTD10]
protein stability index: 3.9
--
residue sequence: GSKCSPEDLATAYNNRGQIKYFRV [TTC32]
protein stability index: 2.16
--
residue sequence: MYTPAYGDFDFDEVKFPNASDMFR [MYORG]
protein stability index: 3.1
--
residue sequence: TWLTTPKSTWPRYSKPGLSMRLLE [TCF25]
protein stability index: 2.41
--
residue sequence: RLYRLKLEELTKLQNNCTSSITRQ [TMEM120A]
protein stability index: 2.62
--
residue sequence: DKDCSLDCAGSPQKPLCASDGRTF [SMOC2]
protein stability index: 4.68
--
residue sequence: KEQSKELQMKLEKLREKERKKEAK [FAM50A]
protein stability index: 5.02
--
residue sequence: SLSNGQGSRVLHVVQTLYPFSSVT [NCK2]
protein stability index: 2.01
--
residue sequence: LYLKQSDLASAAAKQIMEETYKME [INTS4]
protein stability index: 3.05
--
residue sequence: KMNLYESFAQATQLGDLHTCLMMD [INTS3]
protein stability index: 2.5
--
residue sequence: YQLPQMPDVVVRSFMTWLRSYIKL [MED27]
protein stability index: 2.01
--
residue sequence: EQAQAYAERLGVTFFEVSPLCNFN [RAB40A]
protein stability index: 2.25
--
residue sequence: EMEKSFREEEKTFWKKYRTFWKED [CCDC70]
protein stability index: 3.77
--
residue sequence: LLFVRGAGNCPECGTPLRKSNFRV [MNAT1]
protein stability index: 2.2
--
residue sequence: PVAQSTDAIRGKVGYTRGLHVWQI [SPSB1]
protein stability index: 2.15
--
residue sequence: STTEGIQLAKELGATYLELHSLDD [RHOBTB3]
protein stability index: 3.77
--
residue sequence: VENPSTASHSLSPSEHVQGKSPVN [ZNF649]
protein stability index: 5.26
--
residue sequence: LGLKDKEGYTSFWNDCISSGLRGG [GOLPH3L]
protein stability index: 2.65
--
residue sequence: VERSKMIDRNLREDGEKAAREVKL [GNAI1]
protein stability index: 4.93
--
residue sequence: YHINSISVNSDCETYMSADDLRIN [PPP2R2C]
protein stability index: 2.89
--
residue sequence: QLQFLIRYHRFISFALYLAGFCMF [CDS1]
protein stability index: 2.07
--
residue sequence: SSLSFFLKKMGKRLDYLNLKGARL [FBXO39]
protein stability index: 2.96
--
residue sequence: QQCVDKESSLGSESEEEEEFYDAD [SLC22A15]
protein stability index: 5.52
--
residue sequence: LPKEASDGTGASQEPPTTDSQEAQ [TOR1AIP2]
protein stability index: 5.65
--
residue sequence: QPVKTAGEITQHNVTELLRDVAAW [DNAAF3]
protein stability index: 3.73
--
residue sequence: EVLVKSNNLTDRIVVIPGKVEEVS [CARM1]
protein stability index: 3.66
--
residue sequence: SCSQNLLITQQIIPVLYCMVFIAG [P2RY14]
protein stability index: 3.03
--
residue sequence: SSGRELGRPKELQPKKLHLCPLCG [ZNF263]
protein stability index: 3.53
--
residue sequence: DDLQQLQLFTEYGRLAMDEIFQKP [ATL3]
protein stability index: 3.31
--
residue sequence: SSSTMSKSEYMEIEEDMNNSIAHY [KCNA1]
protein stability index: 4.56
--
residue sequence: TKPTQGASSASEPQGLFVEALSVP [CLPTM1]
protein stability index: 4.13
--
residue sequence: YFYDPIERDIEIGFLPWLMNEVEK [RSPH3]
protein stability index: 2.04
--
residue sequence: DIKQLIAKKIKLTAEAEELKPFFM [SOAT1]
protein stability index: 2.59
--
residue sequence: TMEDTLMTVKQYEAARLEYDAYRT [ARFIP2]
protein stability index: 3.88
--
residue sequence: GSSGSYFVKDPQGRIIAVFKPKNE [PI4K2A]
protein stability index: 3.34
--
residue sequence: SVVRDLKGYPDGVKSIVVKGYNIW [TLE6]
protein stability index: 2.26
--
residue sequence: NNSIKDLTDGHFENILADNSVNDQ [SERPINB5]
protein stability index: 5.32
--
residue sequence: DTPVQNKRRRSVTPPEEQQEAEEP [CDC25B]
protein stability index: 5.51
--
residue sequence: EEIPVVICAAAGRMGATMAAINSI [GLT8D2]
protein stability index: 2.48
--
residue sequence: HAFQKELTCVICLNYLVDPVTICC [TRIM43]
protein stability index: 3.04
--
residue sequence: APVTFRHHRYDDLVRTLYKVQNEC [CPN1]
protein stability index: 2.62

Hey, just so you know, these numbers are from the supplement of paper PMC10567573.
